Molecular target: CYP1A2 (Homo sapiens)
Sequence (P05177 whole entry): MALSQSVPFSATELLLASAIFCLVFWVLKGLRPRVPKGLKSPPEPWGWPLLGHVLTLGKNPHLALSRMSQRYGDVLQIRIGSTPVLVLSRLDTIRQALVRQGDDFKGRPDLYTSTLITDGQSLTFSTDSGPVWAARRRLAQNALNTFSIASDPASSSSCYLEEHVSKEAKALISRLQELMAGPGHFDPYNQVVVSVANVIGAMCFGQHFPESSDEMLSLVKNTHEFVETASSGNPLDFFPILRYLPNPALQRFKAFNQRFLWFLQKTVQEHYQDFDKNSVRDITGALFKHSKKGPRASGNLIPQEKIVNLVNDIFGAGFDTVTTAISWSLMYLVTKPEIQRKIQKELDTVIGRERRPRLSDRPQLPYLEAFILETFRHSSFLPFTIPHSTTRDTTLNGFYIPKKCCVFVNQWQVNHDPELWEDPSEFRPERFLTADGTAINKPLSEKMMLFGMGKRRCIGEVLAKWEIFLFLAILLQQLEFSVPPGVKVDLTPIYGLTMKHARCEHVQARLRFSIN
Assay: Inhibition of human recombinant CYP1A2 EROD activity expressed in Escherichia coli JM109 assessed as inhibition of de-ethylation of 7-ethoxyresorufin to resorufin at 0.3 uM by spectrofluorometric analysis
Format: ADME
Conditions: recombinant human CYP1A2 expressed in Escherichia coli JM109, probe 7-ethoxyresorufin
reported_metric: inhibition at 0.3 µM

                                   compound           study_system  data_value
0  O=[N+]([O-])c1ccc2nc3c(nc2c1)-c1cccc2cccc-3c12  CYP1A2 (Homo sapiens)       > 50%
1  Cc1nn(-c2ccccc2)c2nc(C(F)(F)F)cc(C(F)(F)F)c12  CYP1A2 (Homo sapiens)       > 50%
2            COc1ccc(Nc2nc(-c3cccs3)cs2)cc1  CYP1A2 (Homo sapiens)       > 50%
3      Brc1ccc2c3c(cccc13)-c1nc3ccccc3nc1-2  CYP1A2 (Homo sapiens)       > 50%
4    C(=N\n1cnnc1)/c1ccc(-c2cccc3ccccc23)o1  CYP1A2 (Homo sapiens)       > 50%
5       COc1ccc(C=O)cc1COc1c(Cl)cc(Cl)cc1Cl  CYP1A2 (Homo sapiens)       > 50%
6  Cn1c(=O)cc2c3c(c(N)ccc31)C(=O)c1ccccc1-2  CYP1A2 (Homo sapiens)       > 50%
7  N#CC1=C(N)Oc2c(ccc3ccccc23)C1c1ccc2c(c1)OCC2 (stereo not given)  CYP1A2 (Homo sapiens)       > 50%
8         O=c1cc(-c2ccccc2)oc2c1ccc1ccccc12  CYP1A2 (Homo sapiens)       > 50%
9  CN1C(=O)/C(=C2\NC(=S)NC2=O)c2cc(Br)ccc21  CYP1A2 (Homo sapiens)       > 50%

* * *

target: Cytochrome P450 1A2 (Homo sapiens, UniProt P05177); assay: Inhibition of human recombinant CYP1A2 EROD activity expressed in Escherichia coli JM109 assessed as inhibition of de-ethylation of 7-ethoxyresorufin to resorufin by spectrofluorometric analysis
pIC50: −log10 of the molar value.
reported_metric: pIC50

In [3]: df
Out[3]:
                                   molecule  data_value
0      Brc1ccc2c3c(cccc13)-c1nc3ccccc3nc1-2        7.66
1  CN1C(=O)/C(=C2\NC(=S)NC2=O)c2cc(Br)ccc21        7.31
2       COc1ccc(C=O)cc1COc1c(Cl)cc(Cl)cc1Cl        7.24
3  Cn1c(=O)cc2c3c(c(N)ccc31)C(=O)c1ccccc1-2        7.80
4  Cc1nn(-c2ccccc2)c2nc(C(F)(F)F)cc(C(F)(F)F)c12        6.64
5  N#CC1=C(N)Oc2c(ccc3ccccc23)C1c1ccc2c(c1)OCC2 (centres undefined)        6.95
6            COc1ccc(Nc2nc(-c3cccs3)cs2)cc1        7.14
7  O=[N+]([O-])c1ccc2nc3c(nc2c1)-c1cccc2cccc-3c12        7.68
8    C(=N\n1cnnc1)/c1ccc(-c2cccc3ccccc23)o1        7.32
